Each recorded value in this set is attributed to ChEMBL document CHEMBL1139484.

assay: Inhibition of anandamide membrane transporter in RBL-2H3 cells assessed as [14C]anandamide uptake; type: cell-based, Rattus norvegicus
pIC50: −log10 of the molar value.
MEASUREMENT LABEL: pIC50

Exercise: Can you share its pIC50? I mean this compound: `CCCCCCc1ccc(OCCCCCCCCCCC(=O)NC2CC2)cc1O`
Solution: < 4.60

Exercise: Proceed to `CCCCCCCCCCCCCCCc1cccc(OCCCCCC(=O)NCCO)c1`
Solution: < 4.60

Exercise: Proceed to `CCCCCc1cc(O)cc(OCCCCCCCCCCC(=O)NC2CC2)c1`
Solution: 4.77

Exercise: Proceed to `CCCCCc1cc(O)cc(OCCCCCCCCCCC(=O)NCCO)c1`
Solution: 4.60

Exercise: Proceed to `CCCCCCc1ccc(O)cc1OCCCCCCCCCCC(=O)Nc1ccc(O)cc1`
Solution: < 4.60

Exercise: Proceed to `CCCCCCc1ccc(OCCCCCCCCCCC(=O)Nc2ccc(O)cc2)cc1O`
Solution: < 4.60

Exercise: Proceed to `CCCCCCc1ccc(O)cc1OCCCCCCCCCCC(=O)NCCO`
Solution: < 4.60

Exercise: Proceed to `CCCCCCc1ccc(O)cc1OCCCCCCCCCCC(=O)NC1CC1`
Solution: 4.89

Exercise: Proceed to `CCCCCCCCCCCCCCCc1cccc(OCCCCCC(=O)Nc2ccc(O)cc2)c1`
Solution: < 4.60
